Value source: patent US12617784B2

protocol summary: Pharmacokinetic evaluation in mice after intragastric administration
Type: in vivo, mouse
run conditions: po; male ICR mouse, 10 mg·kg−1 intragastrically, single dose, fasted, plasma
Method: 400 μl of stock solution with a concentration of 10 mg/mL was accurately pipetted into a glass bottle, and 3.6 mL of mixed menstruum was added. The ratio of the menstruum in the final formulation is DMSO:mixed menstruum (v/v)=10:90. After vortexing (or sonication) and evenly distributed, 4 mL of a dosing solution with a concentration of 1 mg mL^-1 for each compound was obtained. […]
result type: half-life (h)

- CC(C)NC[C@@H](C(=O)N1CCN(c2ncnc3c2[C@H](C)CC(=O)N3)[C@H]2C[C@H]21)c1ccc(Cl)cc1 (single isomer, unassigned) [Example 15 Isomer 2]: 3.16
- CC(C)NC[C@@H](C(=O)N1C2CCC1CN(c1ncnc3c1[C@H](C)CC(=O)N3)C2)c1ccc(Cl)cc1: 1.67
- CC(C)NC[C@@H](C(=O)N1CCN(c2ncnc3c2[C@H](C)C[C@H]3O)CC1)c1ccc(Cl)cc1 [GDC-0068, reference compound]: 2.59
